Source of measurements: paper PMC7819943

Target or test system: OsSMF1 (Oryza sativa, UniProt Q6ZLB0 1-436)
Sequence: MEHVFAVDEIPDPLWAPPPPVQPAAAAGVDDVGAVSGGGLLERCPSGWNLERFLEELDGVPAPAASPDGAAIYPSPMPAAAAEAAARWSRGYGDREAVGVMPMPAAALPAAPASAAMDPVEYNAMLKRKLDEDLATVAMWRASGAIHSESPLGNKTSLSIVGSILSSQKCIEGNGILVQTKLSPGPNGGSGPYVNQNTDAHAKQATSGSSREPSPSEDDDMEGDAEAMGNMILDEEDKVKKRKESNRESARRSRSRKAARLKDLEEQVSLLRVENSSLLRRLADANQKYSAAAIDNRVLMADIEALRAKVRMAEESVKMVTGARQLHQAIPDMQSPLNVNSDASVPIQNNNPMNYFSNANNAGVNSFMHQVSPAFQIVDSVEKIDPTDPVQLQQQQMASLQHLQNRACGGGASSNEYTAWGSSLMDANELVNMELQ
Experiment description: protein-binding microarray (RPBM); PBS, 2% BSA, 51.3 ng/ul salmon testes DNA, 50 uM zinc acetate, 200 nM TF, 25 C, 1 h; high values mean tight binding
Condition: protein: recombinant; tags: N-terminal polyhistidine and DsRed monomer fusion (pET32a); chain copies: 2; label: CyDye5-dUTP incorporated in the synthesized complementary strand; 3' TTTTT single-stranded linker to array surface; dsDNA, one strand shown
The full ranking holds about 39,000 sequences; the median of “fluorescence intensity (a.u.)” is about 4,300, and the highest 2% start at about 39,000. This excerpt belongs to a sample that is enriched for the highest values.
Catalogue of binding signal values

For orientation, consider the following solved cases.
GTTTATACCTATAAAGTTTCTATATTAAAAGTTTACGTGTCGGAGTCACCTAGTGCAG
3490 fluorescence intensity (a.u.)
GATGGTAGGTATGCATATGACGCATATCCTACCTGACGGACGGAGTCACCTAGTGCAG
3450 fluorescence intensity (a.u.)
GACTAATCAAACAATTTCCCTCGCTATTAGTCACTGACAGCGGAGTCACCTAGTGCAG
3590 fluorescence intensity (a.u.)

# context switch: different sequence, same binding signal
Kindly indicate its recorded binding signal. Item: TGGAGGAGGAGGAGGGGAGACCACCGGAGGTAGGCGAATCCGGAGTCACCTAGTGCAG 3140 fluorescence intensity (a.u.)

---

Target or test system: OsSMF1 (Oryza sativa, UniProt Q6ZLB0 1-436)
Sequence: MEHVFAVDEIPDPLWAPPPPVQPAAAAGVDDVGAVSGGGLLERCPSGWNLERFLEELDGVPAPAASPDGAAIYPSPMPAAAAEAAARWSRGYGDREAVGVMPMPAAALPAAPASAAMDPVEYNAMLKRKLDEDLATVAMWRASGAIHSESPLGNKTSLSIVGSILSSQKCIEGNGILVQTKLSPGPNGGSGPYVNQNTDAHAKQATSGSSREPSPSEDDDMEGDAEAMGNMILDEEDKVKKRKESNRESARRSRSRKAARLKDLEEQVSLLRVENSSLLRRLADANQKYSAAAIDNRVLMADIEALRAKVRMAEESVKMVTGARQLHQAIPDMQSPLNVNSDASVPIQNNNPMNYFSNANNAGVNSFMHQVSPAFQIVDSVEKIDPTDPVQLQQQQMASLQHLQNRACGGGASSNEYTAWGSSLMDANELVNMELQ
Experiment description: protein-binding microarray (RPBM); PBS, 2% BSA, 51.3 ng/ul salmon testes DNA, 50 uM zinc acetate, 200 nM TF, 25 C, 1 h; high values mean tight binding
Condition: protein: recombinant; tags: N-terminal polyhistidine and DsRed monomer fusion (pET32a); chain copies: 2; label: CyDye5-dUTP incorporated in the synthesized complementary strand; 3' TTTTT single-stranded linker to array surface; dsDNA, one strand shown
In all, about 39,000 sequences were measured (“fluorescence intensity (a.u.)”: median about 4,300, highest 2% from about 39,000 on). Many of the other results were omitted from the sample, so the highest values are more common in it than they were.
Catalogue of binding signal values

For orientation, consider the following solved cases.
GCACCTTGAATGAATTATCTAGCAAAGCCAGCGTAGACGTCGGAGTCACCTAGTGCAG
30200 fluorescence intensity (a.u.)
TTCAAGTCCAACCTCGGCCACATGCTCCGCCTCCGCCTCGCGGAGTCACCTAGTGCAG
3780 fluorescence intensity (a.u.)
TCAAGTCATGAATTCTCCTATTTCAAGTCACTTCAGAAGTCGGAGTCACCTAGTGCAG
3330 fluorescence intensity (a.u.)
TCTTGACATCCGGAATCATCACGCTCTTCCCAATCGAGGTCGGAGTCACCTAGTGCAG
3680 fluorescence intensity (a.u.)

Kindly indicate its recorded binding signal. Item: TGGATAAGGATGTGTGAGACGTGTGATCTTTACTTGTTGGCGGAGTCACCTAGTGCAG 3980 fluorescence intensity (a.u.)

Kindly indicate its recorded binding signal. Item: GAAACCCGGCCACATCACTCCTTCCCTATGCTCCAGTGAGCGGAGTCACCTAGTGCAG 8040 fluorescence intensity (a.u.)

Kindly indicate its recorded binding signal. Item: GATCGACGGCGACGCCCCTGGAAGGAGCGGAATAGACCACCGGAGTCACCTAGTGCAG 46700 fluorescence intensity (a.u.)
